biological target: T1, rat IL-21R expressed on cells (rat); assay: cell ELISA, CHO cells
T1 construct: whole, on cells
observed.property: A450 (13 nM Ab) (A450)
The reply should be a number in A450, with the unit left off.

In the examples that follow, each entry is paired with its recorded A450 (13 nM Ab).
binder	observed.property	recorded.value
AbU (antibody, human IgG1, V domains shown, CDR3 graft, residue limits derived as for m29; also called VHP/VL25; VHPTM/VL25) VH: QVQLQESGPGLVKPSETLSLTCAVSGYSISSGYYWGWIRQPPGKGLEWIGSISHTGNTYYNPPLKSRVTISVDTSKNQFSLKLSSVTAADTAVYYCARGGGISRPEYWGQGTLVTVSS VL: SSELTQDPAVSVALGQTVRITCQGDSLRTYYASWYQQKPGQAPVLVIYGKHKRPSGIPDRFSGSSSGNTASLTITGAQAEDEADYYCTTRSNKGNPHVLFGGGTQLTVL	A450 (13 nM Ab)	0.927
AbA (antibody, V domains shown, Human IgG1/lambda, transiently expressed; also called VHP/VL2) VH: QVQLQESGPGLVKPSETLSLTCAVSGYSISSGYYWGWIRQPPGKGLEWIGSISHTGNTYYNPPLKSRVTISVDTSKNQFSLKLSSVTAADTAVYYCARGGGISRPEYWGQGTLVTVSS VL: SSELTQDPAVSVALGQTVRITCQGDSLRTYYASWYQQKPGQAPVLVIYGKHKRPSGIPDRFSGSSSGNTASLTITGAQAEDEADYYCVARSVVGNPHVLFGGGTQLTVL	A450 (13 nM Ab)	1.12

Below: the item to evaluate.
Using known records, supply A450 (13 nM Ab) for AbC (antibody, IgG1, V domains shown, As for AbA: IgG1/lambda, CDR3 graft, residue limits derived; also called VHP/VL11) VH: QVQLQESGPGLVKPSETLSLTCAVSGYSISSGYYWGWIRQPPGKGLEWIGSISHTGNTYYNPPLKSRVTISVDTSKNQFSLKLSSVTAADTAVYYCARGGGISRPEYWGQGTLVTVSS VL: SSELTQDPAVSVALGQTVRITCQGDSLRTYYASWYQQKPGQAPVLVIYGKHKRPSGIPDRFSGSSSGNTASLTITGAQAEDEADYYCSSRSRHGNPHVLFGGGTQLTVL
0.999
